Consider the following molecules; for each one, report its K Value.
assay.details: Loading kinetics of silicone micro-O-rings from methanol PAH solution (GC-MS/MS)
Format: physicochemical
// return just the number, without any unit appended

Fill in: K Value of c1ccc2c(c1)-c1cccc3c1c-2cc1ccccc13 [Benzo[b]fluoranthene] is ___
29.3997

Name the recorded K Value for c1ccc(-c2ccccc2)cc1 [Biphenyl] .
33.0653

What value of measured K Value is listed for Cc1ccc2ccccc2c1 [2-Methylnaphthalene] ?
26.6855

What value of measured K Value is listed for c1cc2ccc3cccc4ccc(c1)c2c34 [Pyrene] ?
22.209

Bench note: what K Value did c1cc2ccc3ccc4ccc5cccc6c(c1)c2c3c4c56 [Benzo[g,h,i]perylene] show?
53.4605

Need K Value of c1cc2cccc3c4cccc5cccc(c(c1)c23)c54 [Perylene] , thanks.
33.856

Entry c1ccc2c(c1)ccc1c3ccccc3ccc21 [Chrysene] : reported K Value = ?
0.142

Hey, just so you know, these numbers are from paper PMC9866728.
